MEASUREMENT_NOTES: protein stability index of a GFP-peptide fusion (GPS, HEK-293T) (PSI 1-6); higher = more stable;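 note: 24-mer peptide tiles fused after GFP, lentivirally expressed, FACS-sorted into six equal bins by GFP/DsRed ratio, decoded by Illumina sequencing, PSI is the read-weighted mean bin number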
ASSAY_CONTEXT: treatment: DMSO; c terminus: a fixed tail appended
Reported protein stability index values are given for each entry in this list.
Just the number, please, no unit after it.

Example cases with answers are listed next.
LDFLQEVTRQPRNLQDLCRIKIRQ [ASB7] | 3.35
CKKLHIPLKAQNDLDISRIKRGNT [P2RY14] | 3.44
TAAVLGLICEGLYPASIVDEPTFK [ZBED1] | 2.17
YDRVAQLDQLLHYRKKSAEFPDFY [CHGB] | 2.72
ENGYGFHLNAIRGLPGSFIKEVQK [PDZK1] | 2.62
HLEVKFMNPYNAVLTKKFQVTMRG [FBXO39] | 2.17
TVAMSTLNFCGPNVINHFYCDLPQ [OR3A1] | 2.39
KPDDEVKETAHDLDVKSPPEPRSE [RIPK4] | 5.63

Look at this sequence and give its reported protein stability index. GKDVATQILEGELFDFDLEVKPVL [RSPH3] 3.79

State the recorded protein stability index for this entry: NLRYGFTKEVMNKYKVHGKEILRT [PPEF2] 2.63

###

MEASUREMENT_NOTES: protein stability index of a GFP-peptide fusion (GPS, HEK-293T) (PSI 1-6); higher = more stable
ASSAY_CONTEXT: treatment: DMSO; c terminus: a fixed tail appended
Short version: protein stability index at least 4 is 1 (yes), less is 0 (no).

Answered examples (3):
ALAVKAGHGYDSKKQQELTAAVLG [ZBED1] | 0 (no)
RNRPSFDAILYYYQSGGRLKRPVN [KCNA4] | 0 (no)
PIRSRRALPPLRTRSKSDPVLHPS [FAM189A2] | 1 (yes)

Decide: is the reported value of protein stability index for QFSSRDCTRPVPRNGGKYCEGRRT [ADAMTS4] equal to or greater than 4? 1 (yes)

Hello, I need to know if LCKSVLEIERAIKQTQCPADPLQL [FEM1C] has measured protein stability index not below 4. Thanks! 0 (no)

In plain terms: is recorded protein stability index at least 4 for IGEEVRQLMEKLREKQLSHSLRAV [BEX1] ? 0 (no)

Tell me whether protein stability index is at least 4 here: SAQRSKDPNSQVGACIVNSENKIV [DCTD] 1 (yes)

# check: protein stability index of DPLSPMTASSLLSFAELFSFMLQD [FEM1C] is greater than or equal to 4 0 (no)

Is protein stability index for MFGFFFGRTPLIKLSPKKTWEGFI [CDS2] at or above 4? 0 (no)

###

Entries and their protein stability index values follow.
MEASUREMENT_NOTES: protein stability index of a GFP-peptide fusion (GPS, HEK-293T) (PSI 1-6); higher = more stable
ASSAY_CONTEXT: treatment: MLN4924 1 uM, 8 h; c terminus: a fixed tail appended
Write the number on its own, no unit after it.

GRRLKSPQAPDPEEEENRDSQQPG [FANCE] | 5.67
ECAKAFSRSAILIQHRRTHTDSKY [ZNF396] | 2.67
MLLFLSVPQPRPPGARTRAGAARV [FBXO33] | 2.13
IREDEVHRLGSPYGHCTAGGEGVE [SCNN1D] | 4.85

# query: protein stability index of entry EHPPEVSRETQRTPMNHQKAVNDE [FBXO34] 5.41

Item under review: LFLGIHVFLVSCALPDSVLRRFVV [AUP1] . Reported protein stability index? 2.97

I have this sequence here, MAAHLKKRVYEEFTKVVQPQEEIA [INTS4] , and I need its recorded protein stability index. 3.68

###

MEASUREMENT_NOTES: protein stability index of a GFP-peptide fusion (GPS, HEK-293T) (PSI 1-6); higher = more stable
ASSAY_CONTEXT: treatment: MLN4924 1 uM, 8 h; c terminus: a fixed tail appended
Each record gets a class by protein stability index: b0 = under 3, b1 = from 3 up to 4, b2 = 4 and over

FIMLLIGIVLPVFYLVYFKIQASG [LYSMD4] | b0
QTEKTTRVRTVLNEKQLHTLRTCY [ISL2] | b0
LYRNGKDQDGDQAPEYRGRTELLK [MOG] | b2

# bin lookup: classify DVMLVECYDPKGDQWNILQTPILE [KLHL14] by its protein stability index b0

###

MEASUREMENT_NOTES: protein stability index of a GFP-peptide fusion (GPS, HEK-293T) (PSI 1-6); higher = more stable
ASSAY_CONTEXT: treatment: DMSO; c terminus: a fixed tail appended
MEASURED_METRIC: protein stability index
Output spec: single numeric token, no unit.

PAQLSEDITRYYLCLQLRDDIVSG [EPB41L3] | 2.3
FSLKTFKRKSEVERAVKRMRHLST [MATN2] | 2.54
RAEPYPTSRFGSQCMQPNNIMGIE [NR2F2] | 2.84
QPADVFPRLFKEWNITKLSIEYDS [CRY1] | 2.7
ERTEESSAVQYFQFYGYLSQQQNM [CARM1] | 2.56

Quick check: protein stability index of CTACGSVLEDNIIVSEVQFVESSG [BRF1] ? 3.42

Quick one: protein stability index of TLALEYTYGRRAKGHNTPKDIAHF [DYNC2LI1] ? 2.74

Which measured protein stability index value corresponds to DAAGHGFCYCAGSHKRKRSSGSFC [GMCL1] ? 3.08

Item QSGATISMPCSTDKENGENVGLES [SASS6] has what recorded protein stability index? 5.55

Suppose we examine the sequence SLCCCCRWCCCCGERETRTPEELT [CLCN6] ; what protein stability index value has been reported? 3.66

###

MEASUREMENT_NOTES: protein stability index of a GFP-peptide fusion (GPS, HEK-293T) (PSI 1-6); higher = more stable
ASSAY_CONTEXT: treatment: MLN4924 1 uM, 8 h; c terminus: a fixed tail appended
Rule: T for protein stability index not less than 3, F for anything less.

Look over these answered cases.
CHLFSTYVASHKIEKEEQEKKRKE [ACBD3] | T
SMFSRVGGIIAPFIPSLKYVQWSL [SLC22A15] | F
SESSGQTHLEGDTVQIICNTGYRL [CFHR2] | T
AKVDGETASDSESRAESAPLPVSA [CDS2] | T
ALAVKAGHGYDSKKQQELTAAVLG [ZBED1] | T

Kindly determine if protein stability index recorded for ISFGQLSDRFGRKKVYLTGFALDI [SLC22A15] is above or exactly 3. F

Please check the record AFSQAISAIQALRSSVSRVFDCLK [MED27] and state if its protein stability index is at or above 3. T

Could you please find out whether RPSQYRPDGLRSGDGVPPRSLQDG [LCOR] has protein stability index that meets 3 or exceeds it? T

Could you please find out whether MRDRHVNMHLNLRPFDCPVCNKKF [ZBTB22] has protein stability index that meets 3 or exceeds it? T

Has KIWLVVPSLLELAWEKLLAAFPNL [KLHDC10] a recorded protein stability index greater than or equal to 3? F

###

Each item that follows carries a reported protein stability index.
MEASUREMENT_NOTES: protein stability index of a GFP-peptide fusion (GPS, HEK-293T) (PSI 1-6); higher = more stable
ASSAY_CONTEXT: treatment: DMSO; c terminus: a fixed tail appended
Just the number, please.

Below, each entry is followed by its recorded protein stability index result.
RRQLEACQRERAFSVKFEVQAPRW [OAS1] | 2.75
LRSAGVEQLMYIKEDLIIPHHHSF [FAM50A] | 2.38
PSTYGGGLSVSSRFSSGGACGLGG [KRT16] | 3.21
NWIVPGKFLAFSGPHPKSKIENGY [CDC14A] | 2.32

// switching to the query sequence
I am curious: what protein stability index value has been reported for NRTLWRLDLAGNNIPGDVLRAVEQ [LRRC45] ? 3.01

###

MEASUREMENT_NOTES: protein stability index of a GFP-peptide fusion (GPS, HEK-293T) (PSI 1-6); higher = more stable
ASSAY_CONTEXT: treatment: MLN4924 1 uM, 8 h; c terminus: a fixed tail appended
MEASURED_METRIC: protein stability index
Form rule: numeric answer, no unit written next to it.

LLASSDAALSASMASLLEDLSHIE [SERTAD1] | 3.27
LFQVVINPNFEVAESDYSNNIMKC [LOXL2] | 2.5
INKEELEGNSMRCGRKLAKDGEYC [GMCL1] | 4.15
AFASTCLLSRFSVGIFHLMQIAVP [TMEM175] | 3
LTRQLVSCSSDGGIAVWNMDVSRE [WDFY1] | 3.08

I have this sequence here, LGETKAYVFFEKDFGDMHSYVRSR [TRIB1] , and I need its recorded protein stability index. 2.37

So what does the record say about protein stability index for VLPKPKVISCLEQGEEPWVQVSPE [ZNF75A] ? 4.07

GET /values?readout=protein stability index&item= VQADQERERQRRLEVEREAEKKRE [LRRC59] 5.64

What does the data say about its protein stability index? Entry: DDIARIYQPKRYALSPKTTITMAH [FAM98B] 2.92
